Attribute: koff
Molecular target: T1, cynoCD46-His (cynomolgus, UniProt A0A2K5WCL8 35-328)
T1 construct: extracellular domain; Immobilised by amine coupling on the SPR chip; not shown: His tag
T1 sequence: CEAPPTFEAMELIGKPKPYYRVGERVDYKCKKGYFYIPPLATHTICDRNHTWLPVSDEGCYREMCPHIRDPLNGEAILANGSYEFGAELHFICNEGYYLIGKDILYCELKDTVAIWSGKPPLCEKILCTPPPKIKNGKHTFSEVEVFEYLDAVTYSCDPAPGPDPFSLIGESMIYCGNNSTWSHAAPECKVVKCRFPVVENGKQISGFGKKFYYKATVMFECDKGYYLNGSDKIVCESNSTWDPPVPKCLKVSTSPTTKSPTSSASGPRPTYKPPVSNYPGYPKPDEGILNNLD
Assay: SPR, cynoCD46-His immobilised, antibody as analyte, pH 6.5

- binder: "Benchmark (BM) BA-133-00-01 (antibody, V domains shown, the killing assays used the ADC form; Conjugation site and payload are not described; also called BM (bench mark)) VH: QVQLQESGPGLVKPSETLSLTCTVSGGSVSSYDISWIRQPPGKGLEWIGVIWTDGGTNYNSAFMSRVTISVDTSKNQFSLKLSSVTAADTAVYYCARVYDGYPWFAYWGQGTLVTVSS VL: DIQMTQSPSSLSASVGDRVTITCRASQGISNYLNWYQQKPGKAPKLLIYYTSSLHSGVPSRFSGSGSGTDFTLTISSLQPEDFATYYCQQYIKLPWTFGGGTKLEIKR"
  koff: "0.00117 s⁻¹"
- binder: "BA-133-04-01 (antibody, V domains shown, also called CPE hit BA133-04-01) VH: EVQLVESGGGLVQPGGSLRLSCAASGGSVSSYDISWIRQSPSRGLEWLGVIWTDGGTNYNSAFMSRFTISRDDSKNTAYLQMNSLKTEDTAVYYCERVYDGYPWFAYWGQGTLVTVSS VL: AIQLTQSPSSLSASVGDRVTITCRASQWISNYLNWYLQKPGQSPQLLIYYTSSLHSGVPDRFSGSGSGTDFTLKISRVEAEDVGVYYCQQYIKLPWTFGQGTKVEIK"
  koff: "0.000662 s⁻¹"
